# procedure summary: Volume of distribution at steady state in BALB/c nude mouse at 1 mg/kg, iv measured upto 24 hrs by LC-MS/MS analysis
# Type: ADME, organism-based
# experimental conditions: in vivo, read-out: Vdss
Positions of bridges follow the written chain, without caps; N, C: chain ends. Non-standard residues stand in square brackets, D forms with d. Residues, ends and D or L forms follow the SMILES beside them. *: point of attachment. hPhe(3-Cl-4-CF3) = N[C@@H](CCc1ccc(C(F)(F)F)c(Cl)c1)C(=O)O; NMeGly(cPent) = CN[C@H](C(=O)O)C1CCCC1; NMeCha = CN[C@@H](CC1CCCCC1)C(=O)O; NMeD = CN[C@@H](CC(=O)O)C(=O)O; NMeL = CN[C@@H](CC(C)C)C(=O)O; Morpholide = C1CN(*)CCO1; NMeA = CN[C@@H](C)C(=O)O; Piperidide = C1CCN(*)CC1; Ac5c = NC1(C(=O)O)CCCC1; Aze = O=C(O)[C@@H]1CCN1; Sar = CNCC(=O)O
parameter measured: Vd (L/kg)

molecule	quantitative readout
CC[C@H](C)[C@@H]1NC(=O)[C@H](CC(C)C)N(C)C(=O)C[C@@H](C(=O)N2CCOCC2)N(C)C(=O)[C@H](C2CCCC2)N(C)C(=O)C2(CCCC2)NC(=O)[C@@H]2CCCN2C(=O)[C@H](CCc2ccc(C(F)(F)F)c(Cl)c2)NC(=O)CN(C)C(=O)[C@H](CC2CCCCC2)N(C)C(=O)[C@@H]2CCN2C(=O)[C@H](C)N(C)C1=O ([NMeL]I[NMeA][Aze][NMeCha][Sar][hPhe(3-Cl-4-CF3)]P[Ac5c][NMeGly(cPent)][NMeD]-Morpholide; lactam N-11)	3
CC[C@H](C)[C@@H]1NC(=O)[C@H](CC(C)C)N(C)C(=O)C[C@@H](C(=O)N2CCCCC2)N(C)C(=O)[C@H](C2CCCC2)N(C)C(=O)C2(CCCC2)NC(=O)[C@@H]2CCCN2C(=O)[C@H](CCc2ccc(C(F)(F)F)c(Cl)c2)NC(=O)CN(C)C(=O)[C@H](CC2CCCCC2)N(C)C(=O)[C@@H]2CCN2C(=O)[C@H](C)N(C)C1=O ([NMeL]I[NMeA][Aze][NMeCha][Sar][hPhe(3-Cl-4-CF3)]P[Ac5c][NMeGly(cPent)][NMeD]-Piperidide; lactam N-11)	0.85

###

# procedure summary: AUCinfinity in BALB/c nude mouse at 20 mg/kg, po measured upto 24 hrs by LC-MS/MS analysis
# Format: ADME, organism-based
# experimental conditions: BALB/c nude, in vivo
Positions of bridges follow the written chain, without caps; N, C: chain ends. Non-standard residues stand in square brackets, D forms with d. Residues, ends and D or L forms follow the SMILES beside them. *: point of attachment. hPhe(3-Cl-4-CF3) = N[C@@H](CCc1ccc(C(F)(F)F)c(Cl)c1)C(=O)O; NMeGly(cPent) = CN[C@H](C(=O)O)C1CCCC1; NMeCha = CN[C@@H](CC1CCCCC1)C(=O)O; NMeD = CN[C@@H](CC(=O)O)C(=O)O; NMeL = CN[C@@H](CC(C)C)C(=O)O; Morpholide = C1CN(*)CCO1; NMeA = CN[C@@H](C)C(=O)O; Ac5c = NC1(C(=O)O)CCCC1; Aze = O=C(O)[C@@H]1CCN1; Sar = CNCC(=O)O
parameter measured: AUC(0-inf)

compound	result
CC[C@H](C)[C@@H]1NC(=O)[C@H](CC(C)C)N(C)C(=O)C[C@@H](C(=O)N2CCOCC2)N(C)C(=O)[C@H](C2CCCC2)N(C)C(=O)C2(CCCC2)NC(=O)[C@@H]2CCCN2C(=O)[C@H](CCc2ccc(C(F)(F)F)c(Cl)c2)NC(=O)CN(C)C(=O)[C@H](CC2CCCCC2)N(C)C(=O)[C@@H]2CCN2C(=O)[C@H](C)N(C)C1=O ([NMeL]I[NMeA][Aze][NMeCha][Sar][hPhe(3-Cl-4-CF3)]P[Ac5c][NMeGly(cPent)][NMeD]-Morpholide; lactam N-11)	3880 ng·h/mL
